# measurement-description: Plasma protein binding
# assay-context: mouse, plasma diluted with 1 volume of PBS pH 7.4, pH 7.4
Listed below: fraction unbound at 1 μM values for each entry.
measured-attribute: fraction unbound at 1 μM

- molecule: "Cc1ccc(NC(=O)COc2ccccc2Cc2ccccc2)c(C(=O)O)c1"
  measured-attribute: "fraction unbound at 1 μM"
  assay-result: 0.01
- molecule: "CCC(C)c1ccccc1OCCCC(=O)Nc1ccccc1C(=O)O (racemic)"
  measured-attribute: "fraction unbound at 1 μM"
  assay-result: 0.01

* * *

# measurement-description: Cytotoxicity assay, BHK-21 cells
# assay-context: hamster, BHK-21 cells, CC50, Hamster BHK-21 cells; value repeated under each virus
measured-attribute: CC50 (µM)

- compound: "CCCCCc1ccc(C#Cc2ccc(NC(=O)CC)c(C(=O)O)c2)cc1 [Example 8]"
  unit-of-measurement: "µM"
  assay-result: 7.5
- compound: "Cc1ccc(NC(=O)COc2ccccc2Cc2ccccc2)c(C(=O)O)c1 [Example 1]"
  unit-of-measurement: "µM"
  assay-result: 140
- compound: "CCCCCc1ccc(C#Cc2ccc(NC(=O)C(C)C)c(C(=O)O)c2)cc1 [Example 9]"
  unit-of-measurement: "µM"
  assay-result: 50
- compound: "COc1ccc(Nc2ccc(Oc3ccccc3)cc2)c(C(=O)O)c1 [Example 4]"
  unit-of-measurement: "µM"
  assay-result: 125

* * *

Listed below: logD values for each entry.
# measurement-description: Log D (PBS pH 7.4/octanol)

- compound: "CCC(=O)Nc1ccc(-c2ccc(-c3ccccc3)cc2)cc1C(=O)O"
  logD: 3.07
- compound: "CCCCCc1ccc(C#Cc2ccc(NC(=O)CC)c(C(=O)O)c2)cc1"
  logD: 4.6
- compound: "CCC(C)c1ccccc1OCCCC(=O)Nc1ccccc1C(=O)O (racemic)"
  logD: 2.59
- compound: "Cc1ccc(NC(=O)COc2ccccc2Cc2ccccc2)c(C(=O)O)c1"
  logD: 2.62

* * *

# System: TOSV
# measurement-description: microbe, parasite or virus in culture
# Assay type: cell-based, Toscana virus
# assay-context: Toscana virus, Vero C1008, read-out: IC50 (TOSV)
pIC50: −log10 of the molar value.
Hi, to clarify the labels: Criterion met covers pIC50 from 7 upward, Criterion not met covers anything below 7.

- molecule: "CCCCCc1ccc(C#Cc2ccc(NC(=O)CC)c(C(=O)O)c2)cc1 [Example 8]"
  label: "Criterion met"
- molecule: "CCC(C)c1ccccc1OCCOC(=O)Nc1ccccc1C(=O)O (centres unmarked) [Example 12]"
  label: "Criterion not met"
- molecule: "O=C(O)c1ccccc1NC(=O)n1ccc2ccccc21 [Example 14]"
  label: "Criterion not met"

* * *

# Tested on: TOSV
# measurement-description: microbe, parasite or virus in culture
# Assay type: cell-based, Toscana virus
# assay-context: Toscana virus, Vero C1008, read-out: IC50 (TOSV)
pIC50: −log10 of the molar value.
Listed below: pIC50 values for each entry.

- compound: "COc1ccc(Nc2ccc(Oc3ccccc3)cc2)c(C(=O)O)c1 [Example 4]"
  measured-target: "TOSV"
  pIC50: 7.10
- compound: "Cc1ccc(NC(=O)COc2ccccc2Cc2ccccc2)c(C(=O)O)c1 [Example 1]"
  measured-target: "TOSV"
  pIC50: 7.05
- compound: "Cc1ccc2nc(COc3ccc(Cl)cc3Cc3ccccc3)oc(=O)c2c1 [Example 21]"
  measured-target: "TOSV"
  pIC50: 6.10
- compound: "CC(C)c1ccccc1SCC(=O)Nc1ccccc1C(=O)O [Example 2]"
  measured-target: "TOSV"
  pIC50: 6.26
- compound: "CCC(=O)Nc1ccc(-c2ccc(-c3ccccc3)cc2)cc1C(=O)O [Example 6]"
  measured-target: "TOSV"
  pIC50: 6.92

* * *

# measurement-description: Cytotoxicity assay (CellTiter-Blue), Vero E6 cells
# assay-context: CC50; cell line not given

- molecule: "CCC(C)c1ccccc1OCc1nc2ccc(C)cc2c(=O)o1 (stereo not shown) [Example 20]"
  unit-of-measurement: "µM"
  limit-qualifier: "="
  CC50: 75
- molecule: "CCC(C)c1ccccc1OCC(=O)Nc1ccc2c(c1C(=O)O)OC(F)(F)O2 (stereo not shown) [Example 16]"
  unit-of-measurement: "µM"
  limit-qualifier: "="
  CC50: 37
- molecule: "CCC(C)c1ccccc1OCCOC(=O)Nc1ccccc1C(=O)O (stereo not shown) [Example 12]"
  unit-of-measurement: "µM"
  limit-qualifier: "="
  CC50: 51
- molecule: "CCc1nc2cc(-c3ccc(-c4ccccc4)cc3)cc(C(=O)O)c2[nH]1 [Example 19]"
  unit-of-measurement: "µM"
  limit-qualifier: "="
  CC50: 8
- molecule: "O=C(COc1ccccc1Cc1ccccc1)Nc1ccc2c(c1C(=O)O)OC(F)(F)O2 [Example 17]"
  unit-of-measurement: "µM"
  limit-qualifier: "="
  CC50: 32
- molecule: "O=C(O)c1ccccc1NC(=O)n1ccc2ccccc21 [Example 14]"
  unit-of-measurement: "µM"
  limit-qualifier: "="
  CC50: 40
- molecule: "CCC(C)(C)c1ccccc1OCCOC(=O)Nc1ccccc1C(=O)O [Example 13]"
  unit-of-measurement: "µM"
  limit-qualifier: ">"
  CC50: 25
- molecule: "CCC(C)c1ccccc1OCCCC(=O)Nc1cnccc1C(=O)O (stereo not shown) [Example 15]"
  unit-of-measurement: "µM"
  limit-qualifier: ">"
  CC50: 25
- molecule: "Cc1ccc2nc(COc3ccc(Cl)cc3Cc3ccccc3)oc(=O)c2c1 [Example 21]"
  unit-of-measurement: "µM"
  limit-qualifier: ">"
  CC50: 100
- molecule: "CCC(C)c1ccccc1OCCCc1nc2ccc(F)cc2c(=O)o1 (stereo not shown) [Example 22]"
  unit-of-measurement: "µM"
  limit-qualifier: "="
  CC50: 17

* * *

Listed below: pIC50 values for each entry.
# System: RVFV
# measurement-description: microbe, parasite or virus in culture
# Type: cell-based
# assay-context: Rift Valley fever virus, SW13, read-out: IC50 RVFV
pIC50: −log10 of the molar value.

- compound: "COc1ccc(Nc2ccc(Oc3ccccc3)cc2)c(C(=O)O)c1"
  pIC50: 6.89
- compound: "CCCCCc1ccc(C#Cc2ccc(NC(=O)C(C)C)c(C(=O)O)c2)cc1"
  pIC50: 7.96
- compound: "CCCCCc1ccc(C#Cc2ccc(NC(=O)CC)c(C(=O)O)c2)cc1"
  pIC50: 8.10
- compound: "CCC(C)c1ccccc1OCCCC(=O)Nc1ccccc1C(=O)O (racemic)"
  pIC50: 7.30
- compound: "Cc1ccc(NC(=O)COc2ccccc2Cc2ccccc2)c(C(=O)O)c1"
  pIC50: 6.55
- compound: "CC(C)c1ccccc1SCC(=O)Nc1ccccc1C(=O)O"
  pIC50: 6.30

* * *

# measurement-description: Cytotoxicity assay (CellTiter-Blue), Vero E6 cells
# assay-context: monkey (simian), Vero E6 cells, CC50, Simian Vero E6 cells; value repeated under each virus
Condition met if CC50 at 4 days is below 20 µM. Condition not met if not; exact matches included in Condition not met.

- molecule: "Cc1ccc(NC(=O)COc2ccccc2Cc2ccccc2)c(C(=O)O)c1"
  label: "Condition not met"
- molecule: "CCC(=O)Nc1ccc(-c2ccc(-c3ccccc3)c(F)c2)cc1C(=O)O"
  label: "Condition met"
- molecule: "O=C(O)c1ccccc1Nc1ccc(Cc2ccccc2)cc1"
  label: "Condition not met"
- molecule: "COc1ccc(Nc2ccc(Oc3ccccc3)cc2)c(C(=O)O)c1"
  label: "Condition not met"
- molecule: "CCC(=O)Nc1ccc(-c2ccc(-c3ccccc3)cc2)cc1C(=O)O"
  label: "Condition met"
- molecule: "CCC(C)c1ccccc1OCCCC(=O)Nc1ccccc1C(=O)O (racemic)"
  label: "Condition met"
- molecule: "CC(C)c1ccccc1SCC(=O)Nc1ccccc1C(=O)O"
  label: "Condition not met"
- molecule: "CCCCCc1ccc(C#Cc2ccc(NC(=O)CC)c(C(=O)O)c2)cc1"
  label: "Condition met"
- molecule: "CCCCCc1ccc(C#Cc2ccc(NC(=O)C(C)C)c(C(=O)O)c2)cc1"
  label: "Condition met"

* * *

# System: Vero E6 cells
# measurement-description: Cytotoxicity assay (CellTiter-Blue), Vero E6 cells
# assay-context: Simian Vero E6 cells; value repeated under each virus
Listed below: CC50 values for each entry.
measured-attribute: CC50 (µM)

- entry-smiles: "O=C(O)c1ccccc1Nc1ccc(Cc2ccccc2)cc1"
  measured-attribute: "CC50"
  assay-result: 77.5
- entry-smiles: "COc1ccc(Nc2ccc(Oc3ccccc3)cc2)c(C(=O)O)c1"
  measured-attribute: "CC50"
  assay-result: 37.9

* * *

Listed below: CC50 values for each entry.
# measurement-description: Cytotoxicity assay, SW13 cells
# assay-context: human

- entry-smiles: "CCCCCc1ccc(C#Cc2ccc(NC(=O)C(C)C)c(C(=O)O)c2)cc1"
  CC50: "17 µM"
- entry-smiles: "Cc1ccc(NC(=O)COc2ccccc2Cc2ccccc2)c(C(=O)O)c1"
  CC50: "60 µM"
- entry-smiles: "COc1ccc(Nc2ccc(Oc3ccccc3)cc2)c(C(=O)O)c1"
  CC50: "75 µM"
- entry-smiles: "CCCCCc1ccc(C#Cc2ccc(NC(=O)CC)c(C(=O)O)c2)cc1"
  CC50: "20 µM"
